Hey, just so you know, these numbers are from ChEMBL document CHEMBL1148661.

Measured IC50 (Peroxisome proliferator-activated receptor alpha (Homo sapiens))
Answers are plain numbers, in nM.

Would you please look over these solved cases?
> print(dat)
                    structure.smiles.string                                 tested.on  endpoint.result
1  CCCc1c(OCCCn2ccc3cc(C(=O)O)ccc32)ccc2c(C(F)(F)F)noc12  Peroxisome proliferator-activated receptor alpha (Homo sapiens)             8300
2  CCCc1c(OCCCNc2ccc(CC(=O)O)cc2)ccc2c(C(F)(F)F)noc12  Peroxisome proliferator-activated receptor alpha (Homo sapiens)               16
3  CCCc1c(OCCCSc2ccc(CC(=O)O)cc2Cl)ccc2c(C(F)(F)F)noc12  Peroxisome proliferator-activated receptor alpha (Homo sapiens)              280
4  CCCc1c(OCCCN(C)c2ccc(CC(=O)O)c(C(F)(F)F)c2)ccc2c(C(F)(F)F)noc12  Peroxisome proliferator-activated receptor alpha (Homo sapiens)              140
5  CCCc1c(OCCCOc2ccc(CC(=O)O)cc2Cl)ccc2c(C(F)(F)F)noc12  Peroxisome proliferator-activated receptor alpha (Homo sapiens)              230
6  CCCc1c(OCCCn2ccc3cc(CCC(=O)O)ccc32)ccc2c(C(F)(F)F)noc12  Peroxisome proliferator-activated receptor alpha (Homo sapiens)              450

Answer for every listed entry: what is its IC50? The entries follow.
1. CCCc1c(OCCCn2ccc3cc(CC(=O)O)ccc32)ccc2c(C(F)(F)F)noc12
2. CCCc1c(OCCCn2nnc3cc(CC(=O)O)ccc32)ccc2c(C(F)(F)F)noc12
3. CCCc1c(OCCCN(C)c2ccc(CC(=O)O)cc2C)ccc2c(C(F)(F)F)noc12

400
4400
600
